Data provenance is patent US11866414B2.

# Method: Brain penetration in vivo assay (brain and plasma exposure)
# Design: species or system mouse
# Run Parameters: C57BL6, mouse, brain / plasma, 2 mg/kg; footnote *****: 2 mpk iv solution dose, exposures measured at 90 minutes; read-out: Ratio of exposure in brain to plasma (mouse)
Endpoint: Kp at 1.5 h
Enter a number only.

[ask] Need Kp at 1.5 h, item "[2H]C([2H])([2H])NC(=O)c1nnc(NC(=O)C2CC2)cc1Nc1nc(F)cc(-c2cnn(C)n2)c1OC"
[reply] 0.6

* * *

Task for the reader: assign each of the following compounds its reported CACO2 (A-B).
# Test system: Caco-2 cells
# Method: Bidirectional permeability assay in Caco-2 cells
# Run Parameters: permeability coefficient apical-to-basolateral, 3 μM, pH 7.4, 0.5% BSA, 2 hours, 37° C.
Enter your answer as a number in nm/s; do not include the unit.

[ask] Need CACO2 (A-B), item [2H]C([2H])([2H])NC(=O)c1nnc(NC(=O)N(C)CC)cc1Nc1nccc(-c2cnn(C)n2)c1OC [Example 58]
[reply] 314

[ask] Need CACO2 (A-B), item [2H]C([2H])([2H])NC(=O)c1nnc(NC(=O)[C@@H]2CC23CC3)cc1Nc1cccc(-c2cnn(C)n2)c1OC [Example 13]
[reply] 251

[ask] Need CACO2 (A-B), item [2H]C([2H])([2H])NC(=O)c1nnc(NC(=O)C2CC2)cc1Nc1cccc(-c2cnn(C3COC3)n2)c1OC [Example 53]
[reply] 425

[ask] Need CACO2 (A-B), item [2H]C([2H])([2H])NC(=O)c1nnc(NC(=O)N(C)C(C)C)cc1Nc1nccc(-c2cnn(C)n2)c1OC [Example 59]
[reply] 351

[ask] Need CACO2 (A-B), item [2H]C([2H])([2H])NC(=O)c1nnc(NC(=O)N2CCC2)cc1Nc1cccc(-c2cnn(C)n2)c1OC [Example 51]
[reply] 429
